All values here come from paper PMC3817407.

Target: T1, ECF03_1244
T1 chain: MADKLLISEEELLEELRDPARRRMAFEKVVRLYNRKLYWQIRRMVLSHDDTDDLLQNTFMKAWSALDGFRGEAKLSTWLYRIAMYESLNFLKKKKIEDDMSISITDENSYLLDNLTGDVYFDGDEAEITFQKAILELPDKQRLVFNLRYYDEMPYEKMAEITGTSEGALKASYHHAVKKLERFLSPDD
endpoint_label: fold repression

Look at this binder and give its reported fold repression. AS22_1147 (protein) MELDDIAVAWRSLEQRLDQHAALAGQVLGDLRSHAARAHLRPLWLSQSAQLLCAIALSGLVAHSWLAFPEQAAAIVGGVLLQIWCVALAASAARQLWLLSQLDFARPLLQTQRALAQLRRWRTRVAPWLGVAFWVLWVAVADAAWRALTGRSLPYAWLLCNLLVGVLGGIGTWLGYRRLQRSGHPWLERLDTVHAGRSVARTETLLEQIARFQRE
3.22

For AS04_1609 (protein) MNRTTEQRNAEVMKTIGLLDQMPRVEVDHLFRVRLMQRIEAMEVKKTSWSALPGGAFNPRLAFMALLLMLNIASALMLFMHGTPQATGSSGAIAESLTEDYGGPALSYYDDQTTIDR , what is its reported fold repression?
4.39

Requested field: fold repression. Item: AS22_4450 (protein) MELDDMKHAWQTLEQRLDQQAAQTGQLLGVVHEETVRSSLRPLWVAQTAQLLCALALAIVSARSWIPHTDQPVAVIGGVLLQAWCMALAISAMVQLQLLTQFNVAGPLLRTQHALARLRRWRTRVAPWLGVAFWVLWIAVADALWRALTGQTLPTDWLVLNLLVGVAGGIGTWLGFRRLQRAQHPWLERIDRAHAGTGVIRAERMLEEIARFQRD
1.75

Item under review: AS14_1324 (protein) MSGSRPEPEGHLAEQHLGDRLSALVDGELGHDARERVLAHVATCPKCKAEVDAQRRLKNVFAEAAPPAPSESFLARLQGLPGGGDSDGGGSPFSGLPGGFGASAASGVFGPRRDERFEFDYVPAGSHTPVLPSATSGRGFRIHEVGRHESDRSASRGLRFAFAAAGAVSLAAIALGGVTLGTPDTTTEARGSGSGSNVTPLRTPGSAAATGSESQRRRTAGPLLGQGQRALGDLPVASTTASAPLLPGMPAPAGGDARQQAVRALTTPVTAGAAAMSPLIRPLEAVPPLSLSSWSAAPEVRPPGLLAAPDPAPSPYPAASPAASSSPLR . Reported fold repression?
3.13

Could you tell me which fold repression is on file for AS03_1198 (protein) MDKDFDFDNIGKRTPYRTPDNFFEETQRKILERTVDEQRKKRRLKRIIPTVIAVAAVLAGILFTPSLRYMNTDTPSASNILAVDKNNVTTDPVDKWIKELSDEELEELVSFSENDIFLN ?
1.36

I have this binder here, AS37_2513 (protein) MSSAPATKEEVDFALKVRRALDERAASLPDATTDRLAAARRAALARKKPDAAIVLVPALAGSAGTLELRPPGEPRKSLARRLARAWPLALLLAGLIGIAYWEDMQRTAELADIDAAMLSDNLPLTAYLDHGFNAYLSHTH , and I need its recorded fold repression.
3.44

I have this binder here, AS31_34 (protein) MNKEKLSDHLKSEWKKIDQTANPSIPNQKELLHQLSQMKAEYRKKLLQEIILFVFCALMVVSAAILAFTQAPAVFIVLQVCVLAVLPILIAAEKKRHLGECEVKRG , and I need its recorded fold repression.
2.34

Please look up its fold repression: AS25_1643_cl43 (protein) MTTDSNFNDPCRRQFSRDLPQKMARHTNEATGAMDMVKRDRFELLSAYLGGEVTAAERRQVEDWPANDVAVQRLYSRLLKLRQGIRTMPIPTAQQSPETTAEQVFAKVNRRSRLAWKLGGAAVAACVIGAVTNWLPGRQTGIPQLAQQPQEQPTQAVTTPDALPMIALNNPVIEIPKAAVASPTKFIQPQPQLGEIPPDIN
1.06

Returns the measured fold repression for the input binder. Input: AS16_3622 (protein) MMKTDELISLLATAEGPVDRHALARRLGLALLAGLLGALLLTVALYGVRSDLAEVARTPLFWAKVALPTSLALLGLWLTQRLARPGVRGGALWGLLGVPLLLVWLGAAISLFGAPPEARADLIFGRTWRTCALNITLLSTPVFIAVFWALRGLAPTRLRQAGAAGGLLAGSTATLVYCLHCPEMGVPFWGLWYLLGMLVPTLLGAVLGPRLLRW
2.09

Any idea what its fold repression is? The binder is AS01_3473 (protein) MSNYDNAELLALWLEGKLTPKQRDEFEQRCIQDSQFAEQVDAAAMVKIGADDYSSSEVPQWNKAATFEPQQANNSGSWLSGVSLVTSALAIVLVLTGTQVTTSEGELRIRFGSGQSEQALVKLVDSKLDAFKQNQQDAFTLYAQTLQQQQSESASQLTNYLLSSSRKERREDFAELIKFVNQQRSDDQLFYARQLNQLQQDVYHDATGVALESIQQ
1.39

// fold repression lookup, key: AS02_915 (protein) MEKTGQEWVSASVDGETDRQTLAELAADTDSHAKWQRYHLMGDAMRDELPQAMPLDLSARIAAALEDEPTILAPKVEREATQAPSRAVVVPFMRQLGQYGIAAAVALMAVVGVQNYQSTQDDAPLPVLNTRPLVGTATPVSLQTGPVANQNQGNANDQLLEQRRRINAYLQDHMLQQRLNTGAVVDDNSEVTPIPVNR
3.01
